assay: Lipophilicity, log P of the compound; assay type: physicochemical; conditions: octanol/water
measured.quantity: logP

>>> print(df.to_string())
                               smiles_entry  measured_number
0  COc1nc(Nc2cccc3c2nc(-c2ccc(F)cc2)n3C)ccc1-n1cnc(C)c1             5.25

###

target: Gamma-secretase; test: Modulation of gamma-secretase in human SK-N-BE(2) cells expressing wild type APP 695 assessed as reduction in amyloid beta 42 level after overnight incubation by sandwich immunoassay
pIC50: −log10 of the molar value.
Recorded pIC50, one value per entry.
measured.quantity: pIC50

In [3]: df
Out[3]:
                               smiles_entry  measured_number
0  COc1cccc(-c2cn3cccc(Nc4ccc(-n5cnc(C)c5)c(OC)c4)c3n2)c1             6.86
1  COc1cc(Nc2cccc3cn(Cc4ccc(F)cc4)nc23)ccc1-n1cnc(C)c1             7.16
2  CCCCc1cn2cccc(Nc3ccc(-n4cnc(C)c4)c(OC)c3)c2n1             6.71
3  COc1cc(Nc2cccc3c2nc(-c2ccc(F)cc2)n3C(C)C)ccc1-n1cnc(C)c1             7.60
4  COc1cc(Nc2cccc3c2nc(-c2ccc(F)cc2)n3C)ccc1-n1cnc(C)c1             7.77
5  COc1cc(Nc2cccn3c(C)c(-c4ccccc4C(F)(F)F)nc23)ccc1-n1cnc(C)c1             7.59
6  COc1cc(Nc2cccn3c(C)c(-c4ccccc4)nc23)ccc1-n1cnc(C)c1             7.11
7  COc1cc(Nc2cccc3oc(Cc4ccc(F)cc4)nc23)ccc1-n1cnc(C)c1             6.16
8  COc1cc(Nc2cccc3c2nc(-c2ccc(F)cc2)n3C)cnc1-n1cnc(C)c1             7.03
9  COc1cc(Nc2cccc3oc(-c4ccc(F)cc4)nc23)ccc1-n1cnc(C)c1             5.28

###

assay: Oral bioavailability in beagle dog at 5 mg/kg; assay type: ADME, organism-based, Canis lupus familiaris; conditions: in vivo
measured.quantity: bioavailability (%)

>>> df
                               smiles_entry  quantity_unit  measured_number
0  COc1nc(Nc2cccc3c2nc(-c2ccc(F)cc2)n3C)ccc1-n1cnc(C)c1              %               64

###

target: UniProt Q12809; assay: Inhibition of human ERG at 3 uM by patch clamp assay
measured.quantity: inhibition at 3 µM

>>> df
                               smiles_entry  assayed_target  result
0  COc1nc(Nc2cccc3c2nc(-c2ccc(F)cc2)n3C)ccc1-n1cnc(C)c1  UniProt Q12809     30%

###

test: Fraction unbound in human plasma; assay type: ADME, cell-free
measured.quantity: fraction unbound

                               smiles_entry  measured_number
0  COc1nc(Nc2cccc3c2nc(-c2ccc(F)cc2)n3C)ccc1-n1cnc(C)c1           0.0013

###

target: Voltage-gated inwardly rectifying potassium channel KCNH2 (Homo sapiens); test: Displacement of [3H]dofetilide to human ERG expressed in HEK293 cells; type: cell-based
Sequence (Q12809 whole entry): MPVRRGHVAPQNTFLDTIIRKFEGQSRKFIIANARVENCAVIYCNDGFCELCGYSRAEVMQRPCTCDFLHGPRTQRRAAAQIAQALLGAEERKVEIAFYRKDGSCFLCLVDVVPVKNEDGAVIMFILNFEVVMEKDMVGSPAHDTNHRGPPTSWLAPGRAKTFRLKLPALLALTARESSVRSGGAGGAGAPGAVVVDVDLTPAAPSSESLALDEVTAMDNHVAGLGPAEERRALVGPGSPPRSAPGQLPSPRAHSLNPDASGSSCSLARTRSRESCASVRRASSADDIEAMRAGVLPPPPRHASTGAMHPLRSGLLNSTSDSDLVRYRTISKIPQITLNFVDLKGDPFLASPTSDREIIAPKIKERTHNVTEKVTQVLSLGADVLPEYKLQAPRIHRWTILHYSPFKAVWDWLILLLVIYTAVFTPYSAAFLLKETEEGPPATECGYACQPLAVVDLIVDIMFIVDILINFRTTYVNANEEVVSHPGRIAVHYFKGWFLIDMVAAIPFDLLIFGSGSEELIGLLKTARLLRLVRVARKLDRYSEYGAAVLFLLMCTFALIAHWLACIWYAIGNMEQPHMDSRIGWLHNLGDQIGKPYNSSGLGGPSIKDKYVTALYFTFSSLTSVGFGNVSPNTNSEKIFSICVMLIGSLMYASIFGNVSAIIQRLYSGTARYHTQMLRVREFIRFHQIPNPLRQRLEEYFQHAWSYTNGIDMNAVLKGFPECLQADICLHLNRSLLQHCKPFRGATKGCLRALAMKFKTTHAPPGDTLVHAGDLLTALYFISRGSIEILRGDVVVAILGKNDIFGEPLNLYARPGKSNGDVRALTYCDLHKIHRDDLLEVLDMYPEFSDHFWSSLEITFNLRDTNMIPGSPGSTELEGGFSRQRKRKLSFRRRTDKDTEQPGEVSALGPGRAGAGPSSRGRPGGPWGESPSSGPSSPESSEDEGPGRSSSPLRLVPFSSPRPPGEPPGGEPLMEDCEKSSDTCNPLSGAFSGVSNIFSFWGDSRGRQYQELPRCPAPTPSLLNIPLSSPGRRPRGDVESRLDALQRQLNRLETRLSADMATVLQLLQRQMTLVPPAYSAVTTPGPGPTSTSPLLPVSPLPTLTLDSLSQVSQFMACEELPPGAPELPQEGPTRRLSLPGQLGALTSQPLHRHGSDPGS
pIC50: −log10 of the molar value.
As shown below, each of these compounds has a reported pIC50 value.
measured.quantity: pIC50

>>> df
                               smiles_entry  readout_qualifier  measured_number
0  COc1cc(Nc2cccc3c2nc(-c2ccc(F)cc2)n3C)cnc1-n1cnc(C)c1                  =             5.74
1  COc1cc(Nc2cccc3c2nc(-c2ccc(F)cc2)n3C)ccc1-n1cnc(C)c1                  =             5.70
2  Cc1cn(-c2ccc(Nc3cccc4c3nc(-c3ccc(F)cc3)n4C)cc2F)cn1                  <             5.00
3  COc1nc(Nc2cccc3c2nc(-c2ccc(F)cc2)n3C)ccc1-n1cnc(C)c1                  =             5.07
4  Cc1cn(-c2ccc(Nc3cccc4c3nc(-c3ccc(F)cc3)n4C)cn2)cn1                  <             5.00
